Data credit: the METLIN SMRT retention time set (Domingo-Almenara et al. 2019)

test: gradient 5% acetonitrile 3 min, to 50% in 2 min, to 85% in 15 min, held 3 min, 100 µL/min; conditions: column: Zorbax Extend-C18 2.1 x 50 mm; eluents: water / acetonitrile, 0.1% formic acid
Listed here are molecules together with their documented RP-LC retention time.
Please respond with the number in s and leave the unit unwritten.

Consider the reported RP-LC retention time for these molecules:
>>> measured_number("COc1cc([C@@H]2c3cc4c(cc3[C@H](O)[C@@H](CO)[C@@H]2C(=O)NCc2ccc(OC(C)C)cc2)OCO4)cc(OC)c1OC")
770
>>> measured_number("CC(C)C(=O)Nc1ccc(C(=O)Nc2nc(-c3ccccc3)cs2)cc1")
949
>>> measured_number("Cc1sc(C)c(S(=O)(=O)NCC(C)c2ccccc2)c1-c1cc(C(F)(F)F)on1 (centres undefined)")
1250
>>> measured_number("O=C(Nc1nc(-c2ccc3c(c2)OCCO3)cs1)c1ccc2ncsc2c1")
857
>>> measured_number("CN(C)S(=O)(=O)c1ccc(-c2nnc(C(=O)NCc3cccs3)o2)cc1")
812

Input line: Fill in: RP-LC retention time of COc1cccc(CNC(=O)C2(C)CCCN(C(=O)Nc3cccc(F)c3)C2)c1 (centres undefined) is ___
Output line: 872

Input line: Lookup COC(=O)c1ccc(NC(=O)C2CCCN(S(=O)(=O)c3ccc(OC)c(C)c3)C2)cc1 (centres undefined)
Output line: 1000

Input line: Lookup O=C(Nc1cccc(-c2nnc3n2CCCC3)c1)c1ccc2ccccc2n1
Output line: 779

Input line: Lookup CC(=O)Nc1ccc(C(=O)NCc2cccs2)c(N2CCCCC2)c1
Output line: 676

Input line: Lookup CCCc1nc(-c2c(C)cc(C)nc2NC(=O)c2ccccc2Cl)no1
Output line: 934

###

Listed here are compounds together with their documented RP-LC retention time.
experiment: gradient 5% acetonitrile 3 min, to 50% in 2 min, to 85% in 15 min, held 3 min, 100 µL/min; conditions: column: Zorbax Extend-C18 2.1 x 50 mm; eluents: water / acetonitrile, 0.1% formic acid
Please respond with the number in s and leave the unit unwritten.

>>> measured_number("O=C(Nc1ccccc1F)[C@@H]1COCC(=O)N1Cc1cccs1")
741
>>> measured_number("Cc1ncc2c(n1)CCCN(CC(=O)NC1CCCCCC1)C2=O")
682
>>> measured_number("Cc1ccc(-c2c(C)noc2C)cc1S(=O)(=O)Nc1ccccc1")
932
>>> measured_number("CNC(=O)[C@@H]1CN(C(=O)Cn2nc(C(F)(F)F)cc2C)C[C@H]1c1n[nH]c(C)n1")
618

Input line: Fill in: RP-LC retention time of O=C(Nc1cccc(Br)c1)c1cnc(-c2ccccc2)nc1-c1ccncc1 is ___
Output line: 990

Input line: Lookup CC(C)(C)OC(=O)Cn1cnc2c(-c3cccc(Cl)c3)csc2c1=O
Output line: 1130

###

assay: gradient 5% acetonitrile 3 min, to 50% in 2 min, to 85% in 15 min, held 3 min, 100 µL/min; conditions: column: Zorbax Extend-C18 2.1 x 50 mm; eluents: water / acetonitrile, 0.1% formic acid
// boundary case: RP-LC retention time equal to 700 s maps to criterion not met; strictly smaller maps to criterion met

Worked examples, 2 compounds total:
>>> class_label("COc1ccc(C(=O)NC2CCN(c3ccc(N4CCSCC4)nn3)CC2)c(OC)c1")
"criterion met"
>>> class_label("O=C(CCc1c(-c2ccc(Br)cc2)nc2ccccn12)NCCC1=CCCCC1")
"criterion not met"

Input line: Regarding Cc1ccc(NC(=O)Cn2cnc3c(sc4nc(-c5ccccc5)ccc43)c2=O)c(Cl)c1 , kindly confirm whether its RP-LC retention time is beneath 700 s.
Output line: criterion not met

Input line: Lookup O=C(Nc1ccsn1)c1ccc(Cl)cc1Cl
Output line: criterion not met

Input line: Lookup CC(C)c1ccc(NC(=O)Cn2nc3c4ccc(Cl)cc4ncn3c2=O)cc1
Output line: criterion met

Input line: Lookup CCc1nn2c(nnc3c(=O)n(CCc4c[nH]c5ccccc45)ccc32)c1-c1ccc(F)cc1
Output line: criterion not met

Input line: Lookup CCOc1cc(=O)c(C(=O)N2CCN(c3ncccn3)CC2)nn1-c1ccc(C)cc1
Output line: criterion not met

###

assay: gradient 5% acetonitrile 3 min, to 50% in 2 min, to 85% in 15 min, held 3 min, 100 µL/min; details: column: Zorbax Extend-C18 2.1 x 50 mm; eluents: water / acetonitrile, 0.1% formic acid
// boundary case: RP-LC retention time equal to 700 s maps to not fulfilled; strictly smaller maps to fulfilled

Worked examples, 6 compounds total:
>>> class_label("COc1cc(CN2CCCC2c2cc(C)on2)cc(OC)c1O (stereo not given)")
"fulfilled"
>>> class_label("O=C(N[C@H]1C[C@@H]2C[C@H]1CN2S(=O)(=O)c1ccc2c(c1)OCCO2)c1ccccc1")
"not fulfilled"
>>> class_label("O=C1C2CCCN2C(=O)c2ccccc2N1CCc1ccccc1 (stereo not given)")
"not fulfilled"
>>> class_label("CCNS(=O)(=O)c1cc(-c2c(CC)noc2NC(C)=O)ccc1OC")
"fulfilled"
>>> class_label("CC(=O)N1c2ccc(S(=O)(=O)N3CCCCCC3)cc2CC1C(=O)NCCc1ccc(C)cc1 (stereo not given)")
"not fulfilled"
>>> class_label("O=C(Cc1cccc(F)c1)Nc1nnc(C2CC(=O)N(c3ccc(F)cc3)C2)o1 (stereo not given)")
"not fulfilled"

Input line: Regarding COc1ccc(-c2nc(C)c3c(n2)N(Cc2ccco2)C(=O)CC3)cc1 , kindly confirm whether its RP-LC retention time is beneath 700 s.
Output line: not fulfilled

Input line: Lookup Cc1ccc2c(c1)N(S(C)(=O)=O)CCC(C(=O)Nc1ccc(OC(C)C)cc1)O2 (stereo not given)
Output line: not fulfilled

Input line: Lookup O=C(Cc1cn2cc(F)ccc2n1)Nc1ccccc1
Output line: fulfilled

Input line: Lookup CC(=O)Nc1ccc(NC(=O)C2CCCN(c3ccc(=O)n(-c4ccc(C)c(Cl)c4)n3)C2)cc1 (stereo not given)
Output line: not fulfilled

Input line: Lookup O=C(NCCc1ccco1)c1ccc2ccnc(N3CCN(c4ccccc4)CC3)c2c1
Output line: not fulfilled

Input line: Lookup O=C(Nc1nnc(C2CC(=O)N(c3ccccc3)C2)o1)c1ccccc1Cl (stereo not given)
Output line: not fulfilled

Input line: Lookup O=C(Cc1csc2nc(-c3cccc(Br)c3)cn12)NCCC1=CCCCC1
Output line: not fulfilled

Input line: Lookup CCn1ccc2sc(C)c(C(=O)NC3CCCC3)c2c1=O
Output line: not fulfilled

Input line: Lookup O=C(Nc1ccc(F)cc1F)N1CCc2nc[nH]c2C1
Output line: fulfilled

Input line: Lookup Cc1nc2c(sc3nc(-c4ccccc4)ccc32)c(=O)n1CC(=O)NCCc1ccc(Cl)cc1
Output line: not fulfilled

Input line: Lookup CC(C)Cn1cc(S(=O)(=O)Nc2ccccc2F)c2cccnc21
Output line: not fulfilled

###

assay: gradient 5% acetonitrile 3 min, to 50% in 2 min, to 85% in 15 min, held 3 min, 100 µL/min; settings: column: Zorbax Extend-C18 2.1 x 50 mm; eluents: water / acetonitrile, 0.1% formic acid
readout_label: RP-LC retention time (s)
Please respond with the number in s and leave the unit unwritten.

Consider the reported RP-LC retention time for these molecules:
>>> measured_number("CSc1cccc(NC(=O)N2CCN(c3cc(C)nc(N4CCCC4)n3)CC2)c1")
696
>>> measured_number("COc1ccc(S(=O)(=O)N2CCCC(C(=O)NC(C)C)C2)cc1OC (centres undefined)")
720
>>> measured_number("CSc1ccc(CNC(=O)C2CCCN(c3ccc(=O)n(-c4ccc(C)c(Cl)c4)n3)C2)cc1 (centres undefined)")
1010
>>> measured_number("CCN1CCN(c2nc3cc(C(=O)OC)ccc3c(=O)n2-c2cc(OC)cc(OC)c2)CC1")
661
>>> measured_number("COCCn1cc2c3c(cccc31)CN(C(=O)Nc1ccc(OC)cc1OC)CC2")
883

Let us examine a further case.
Input line: Fill in: RP-LC retention time of Cc1sc(NC(=O)c2cccc(Cl)c2)nc1-c1ccc2c(c1)NC(=O)C(C)O2 (centres undefined) is ___
Output line: 1040

###

experiment: gradient 5% acetonitrile 3 min, to 50% in 2 min, to 85% in 15 min, held 3 min, 100 µL/min; settings: column: Zorbax Extend-C18 2.1 x 50 mm; eluents: water / acetonitrile, 0.1% formic acid
Listed here are compounds together with their documented RP-LC retention time.
Please respond with the number in s and leave the unit unwritten.

>>> measured_number("Cc1nc(C)c(C(=O)NCCn2c(C)cnc2C2CCC2)s1")
570

Input line: Fill in: RP-LC retention time of CN(Cc1ccco1)C(=O)c1ccc(NC(=O)C2CC2)cc1N1CCCCCC1 is ___
Output line: 869

Input line: Lookup CC(C)NC(=O)c1ccc(OCC2CCN(C(=O)c3cc(F)ccc3Cl)CC2)cc1
Output line: 891

Input line: Lookup O=C(NC1CCN(c2cc(-c3ccc(Cl)cc3)[nH]n2)C1)c1ccc2cc[nH]c2c1 (stereo not drawn)
Output line: 762

Input line: Lookup CCN1C(=O)CCc2c(C)nc(-c3ccc(OC)cc3)nc21
Output line: 901

Input line: Lookup O=C(Cn1cccc1-c1nc(-c2ccc(Cl)cc2)cs1)N1CCN(c2ncccn2)CC1
Output line: 1100

Input line: Lookup COCCNC(=O)C1CCN(c2cnn(Cc3ccccc3)c(=O)c2)CC1
Output line: 661

Input line: Lookup CCc1nc(-c2csc(S(=O)(=O)N3CCCC(C(=O)NCc4ccc(C)cc4)C3)c2)no1 (stereo not drawn)
Output line: 1060

Input line: Lookup Cc1cc(S(=O)(=O)N2C[C@@H](F)C[C@H]2C(=O)N2CCc3ccccc3C2)ccc1F
Output line: 959

Input line: Lookup O=C(NCc1ccco1)c1ccc(-n2nnc3cccnc32)cc1Cl
Output line: 793
